Tested on: primary human NK cells
Test: NK cell activation assessed by cytokine secretion (coculture with K562 NucRed target cells)
Assay type: cell-based
Conditions: K562, 5:1 E/T, 10 μM, read-out: MIP1β secretion
endpoint: fold induction at 10 µM

As a guide, the following entries are already answered.
- Cn1cnnc1C(F)(F)[C@](C)(F)c1cccc(N2Cc3c(cc(CN4CCC(F)(F)C4)cc3C(F)(F)F)C2=O)c1: 2.01 to 5
- Cn1cnnc1C(F)(F)[C@](C)(F)c1cccc(N2Cc3c(cc(CN4CC[C@H](F)C4)cc3C(F)(F)F)C2=O)c1: 2.01 to 5
- Cn1cnnc1C(F)(F)[C@](C)(F)c1cccc(N2Cc3c(cc(C(=O)N4CC[C@H](O)C4)cc3C(F)(F)F)C2=O)c1: 1.01 to 2

// compound C[C@H](Cc1nncn1C)c1cccc(NC(=O)c2ccnc(C(F)(F)F)n2)c1 , assay primary human NK cells, fold induction at 10 µM value: 2.01 to 5
